Here's what we have: AC50 numbers for Equilibrative nucleoside transporter 1 (Homo sapiens, UniProt Q99808).

1) C[N+]1(C)CCC(OC(=O)C(O)(c2ccccc2)C2CCCC2)C1 (stereo unspecified) [GLYCOPYRRONIUM BROMIDE] ... > 30 µM
2) c1cnc(N2CCN(Cc3ccc4c(c3)OCO4)CC2)nc1 [PIRIBEDIL] ... > 30 µM

List the reported AC50 of each compound below.
1. COc1ccccc1N1CCN(CCCNc2cc(=O)n(C)c(=O)n2C)CC1
2. CCCC1O[C@@H]2C[C@H]3[C@@H]4CCC5=CC(=O)C=C[C@]5(C)[C@H]4[C@@H](O)C[C@]3(C)[C@]2(C(=O)CO)O1 (stereo partly specified) [BUDESONIDE]
3. O=C(O)CCCCCCNC1c2ccccc2CCc2ccccc21 [AMINEPTINE]
4. COc1ccc(CCNCC(O)COc2cccc(C)c2)cc1OC (stereo unspecified) [BEVANTOLOL]

Output line:
["> 30 µM", "> 10 µM", "> 30 µM", "> 30 µM"]

List the reported AC50 of each compound below.
1. OC(CNCC(O)C1CCc2cc(F)ccc2O1)C1CCc2cc(F)ccc2O1 (stereo unspecified) [NEBIVOLOL]
2. O=C(O)[C@H](CC(=O)N1C[C@H]2CCCC[C@H]2C1)Cc1ccccc1 [MITIGLINIDE]
3. COc1cccc(C2(O)CCCCC2CN(C)C)c1 (stereo unspecified) [TRAMADOL]

Output line:
> 30 µM
> 10 µM
> 30 µM

---

System: D(1A) dopamine receptor (Homo sapiens); further: assay procedure not described here
Sequence (P21728 whole entry): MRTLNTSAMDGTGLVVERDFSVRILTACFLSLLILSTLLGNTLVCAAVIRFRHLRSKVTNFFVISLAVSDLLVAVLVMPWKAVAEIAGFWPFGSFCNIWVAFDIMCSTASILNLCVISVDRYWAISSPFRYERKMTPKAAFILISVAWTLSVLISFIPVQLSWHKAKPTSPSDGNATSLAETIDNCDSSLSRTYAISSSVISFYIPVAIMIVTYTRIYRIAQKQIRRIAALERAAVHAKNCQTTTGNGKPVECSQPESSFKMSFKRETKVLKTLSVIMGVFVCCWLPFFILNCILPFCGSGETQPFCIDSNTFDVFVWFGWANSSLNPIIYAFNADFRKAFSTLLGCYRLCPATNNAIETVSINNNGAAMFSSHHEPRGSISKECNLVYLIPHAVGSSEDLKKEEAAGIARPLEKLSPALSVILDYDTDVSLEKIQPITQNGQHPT
Assay type: functional, cell-based
Endpoint: AC50

A selection of reference data follows.
1) CC(CC1c2ccccc2CCc2ccccc21)CN(C)C (stereo not given) ... > 30 µM
2) C=CCC1(CC(C)C)C(=O)NC(=O)NC1=O ... > 30 µM
3) NC(=O)CN1CC(O)CC1=O (stereo not given) ... > 30 µM
4) Cc1ccc(S(=O)(=O)NC(=O)NN2CC3CCCC3C2)cc1 (stereo not given) [GLICLAZIDE] ... > 30 µM
5) C/C(O)=C(\C#N)C(=O)Nc1ccc(C(F)(F)F)cc1 [TERIFLUNOMIDE] ... > 30 µM
6) Cc1cn([C@H]2C=C[C@@H](CO)O2)c(=O)[nH]c1=O ... > 10 µM
7) CN1C(C(=O)Nc2ccccn2)=C(O)c2sc(Cl)cc2S1(=O)=O ... > 10 µM
8) O=C(O)C[C@H](O)C[C@H](O)/C=C/c1c(C2CC2)nc2ccccc2c1-c1ccc(F)cc1 ... > 10 µM
9) Cc1cn([C@H]2C[C@H](N=[N+]=[N-])[C@@H](CO)O2)c(=O)[nH]c1=O ... > 10 µM
10) COC(=O)C1=C(C)NC(C)=C(C(=O)OC2CCCN(Cc3ccccc3)C2)C1c1cccc([N+](=O)[O-])c1 (stereo not given) ... > 30 µM

List the reported AC50 of each compound below.
1. CC(C(=O)O)c1ccc(N2Cc3ccccc3C2=O)cc1 (stereo not given)
2. NC(=O)OCC(COC(N)=O)c1ccccc1 [FELBAMATE]
3. CCC1(CC)C(=O)NCC(C)C1=O (stereo not given)
4. O=C(O)/C=C/c1ccc(Cn2ccnc2)cc1
5. COc1ccccc1N1CCN(CCCNc2cc(=O)n(C)c(=O)n2C)CC1

Output line:
1. 0.51 µM
2. > 10 µM
3. > 30 µM
4. > 30 µM
5. > 30 µM

List the reported AC50 of each compound below.
1. CC(=O)c1ccc2c(c1)N(CCCN(C)C)c1ccccc1S2
2. Nc1nc(Cl)nc2c1ncn2[C@H]1C[C@H](O)[C@@H](CO)O1
3. Clc1ccc(CCCOCCCN2CCCCC2)cc1
4. O=C(O[C@H]1C[C@H]2CC[C@@H](C1)[N+]21CCCC1)C(O)(c1ccccc1)c1ccccc1

Output line:
1: > 30 µM; 2: > 30 µM; 3: > 30 µM; 4: > 30 µM

Input line: Reported AC50 for CN(C)/N=N/c1[nH]cnc1C(N)=O : what is it?
Output line: > 10 µM
